Test system: Clostridium sporogenes DSM 1664
Protocol description: growth (OD595) fold change vs plate DMSO controls (fold change (ratio)); higher = more growth
Condition details: 0.6125 µM; incubation time: 27 h, anaerobic, 37 °C
Where a name gives a salt, the structure may show the parent alone.
Each entry below lists one item and its recorded growth value.
Note: the reply should be a number with no unit written.

| Compound | growth |
| --- | --- |
| C[C@]1(Cn2ccnn2)[C@H](C(=O)O)N2C(=O)C[C@H]2S1(=O)=O | 1.01 |

Ask | Fill in growth for record N[C@@H](C(=O)N[C@@H]1C(=O)N2C(C(=O)O)=C(Cl)CC[C@H]12)c1ccccc1
Reply | 1.15

Ask | Respond only with growth recorded for O=C1NCCN1c1ncc([N+](=O)[O-])s1
Reply | 1.08

Ask | Answer with the recorded growth for the compound listed here: Cc1cc(C(C#N)c2ccc(Cl)cc2)c(Cl)cc1NC(=O)c1cc(I)cc(I)c1O (stereo unspecified)
Reply | 0.882

Ask | Give growth for CC(=O)OCC1=C(C(=O)O)N2C(=O)[C@@H](NC(=O)Cc3cccs3)[C@H]2SC1 [Cephalothin sodium salt]
Reply | 0.841

Ask | Quote growth reported for Cc1ncc([N+](=O)[O-])n1CC(C)O (stereo unspecified) please.
Reply | 0.982

Ask | For the compound CC=CC1=C(C(=O)O)N2C(=O)[C@@H](NC(=O)[C@H](N)c3ccc(O)cc3)[C@H]2SC1 , give its measured growth value.
Reply | 1.1

Ask | Note down growth recorded for NCc1ccccc1CC(=O)N[C@@H]1C(=O)N2C(C(=O)O)=C(CSc3nnnn3CC(=O)O)CS[C@H]12 [Ceforanide]
Reply | 0.842

Ask | Dear colleague, please send me the reported growth for Oc1c(Cl)cc(Cl)c(Cl)c1Cc1c(O)c(Cl)cc(Cl)c1Cl when you can.
Reply | 1.05

Ask | Kindly indicate its recorded growth. Item: CC(C)/N=c1\cc2n(-c3ccc(Cl)cc3)c3ccccc3nc-2cc1Nc1ccc(Cl)cc1
Reply | 1.11

Ask | Name the recorded growth of the compound listed here: CC(=O)Oc1ccccc1C(=O)Nc1ncc([N+](=O)[O-])s1 [Nitazoxanide]
Reply | 1.24

* * *

Test system: Clostridium sporogenes DSM 1664
Protocol description: fold change of Tryptamine concentration vs plate DMSO controls (fold change (ratio)); higher = more amine produced
Condition details: 2.5 µM; incubation time: 27 h, anaerobic, 37 °C
Short version: fold change of Tryptamine concentration at least 1 is label 1, less is label 0.

Recorded results for 5 compounds are shown here.
| Compound | Discrete label |
| --- | --- |
| Oc1c(Cl)cc(Cl)c(Cl)c1Cc1c(O)c(Cl)cc(Cl)c1Cl [Hexachlorophene] | label 1 |
| NCc1ccccc1CC(=O)N[C@@H]1C(=O)N2C(C(=O)O)=C(CSc3nnnn3CC(=O)O)CS[C@H]12 [Ceforanide] | label 1 |
| N[C@@H](C(=O)N[C@@H]1C(=O)N2C(C(=O)O)=C(Cl)CC[C@H]12)c1ccccc1 [Loracarbef] | label 0 |
| CC(C)/N=c1\cc2n(-c3ccc(Cl)cc3)c3ccccc3nc-2cc1Nc1ccc(Cl)cc1 [Clofazimine] | label 0 |
| O=C1NCCN1c1ncc([N+](=O)[O-])s1 [Niridazole] | label 0 |

Attention now turns to another entry.
Ask | Hi, just wondering whether C[C@]1(Cn2ccnn2)[C@H](C(=O)O)N2C(=O)C[C@H]2S1(=O)=O [Tazobactam] shows fold change of Tryptamine concentration of 1 or higher.
Reply | label 1

This collection of values is drawn from the supplement of paper PMC12494721.
